Numbers sourced from PubChem BioAssay (NCI).

A collection of molecules and their measured growth
# System: CAKI-1 renal
# Protocol summary: NCI-60 one-dose screen, 48 h (100 = growth as untreated, 0 = no growth, -100 = all killed)
# Stated conditions: 10 µM
Compounds without any hit were thinned out: in the full panel of roughly 83,000, 20% have a hit.
Test readout: growth (%)

- Molecule: "O=C(O)/C=C/C(=O)NCc1ccccc1"
  Experimental system: "CAKI-1 renal"
  Test readout: "growth"
  Unit label: "%"
  Measured: 102
- Molecule: "CC(=O)C1CCCCC1"
  Experimental system: "CAKI-1 renal"
  Test readout: "growth"
  Unit label: "%"
  Measured: 90.8
- Molecule: "CC(C)(N)COS(=O)(=O)O"
  Experimental system: "CAKI-1 renal"
  Test readout: "growth"
  Unit label: "%"
  Measured: 103
- Molecule: "O=C(O)c1cc([N+](=O)[O-])ccc1Cl"
  Experimental system: "CAKI-1 renal"
  Test readout: "growth"
  Unit label: "%"
  Measured: 101
- Molecule: "CCOC(=O)C(C#N)Cc1ccccc1 (stereo not given)"
  Experimental system: "CAKI-1 renal"
  Test readout: "growth"
  Unit label: "%"
  Measured: 98.7
- Molecule: "C=CCOC(=O)C(=O)OCC=C"
  Experimental system: "CAKI-1 renal"
  Test readout: "growth"
  Unit label: "%"
  Measured: 136
- Molecule: "Cc1ncc(C#N)c(N)n1"
  Experimental system: "CAKI-1 renal"
  Test readout: "growth"
  Unit label: "%"
  Measured: 92.9
- Molecule: "COc1ccc(C2OC(N)=C(O)C2=O)cc1OC (stereo not given)"
  Experimental system: "CAKI-1 renal"
  Test readout: "growth"
  Unit label: "%"
  Measured: 92.7
- Molecule: "O=c1cc(-c2ccccc2)oc2c1ccc1ccccc12"
  Experimental system: "CAKI-1 renal"
  Test readout: "growth"
  Unit label: "%"
  Measured: 90.8
- Molecule: "CCOC(=O)C1=C(Nc2ccc(Br)cc2)C(=O)N(CC)C1"
  Experimental system: "CAKI-1 renal"
  Test readout: "growth"
  Unit label: "%"
  Measured: 88.2
- Molecule: "CC(C)C1CCCCC1O (stereo not given)"
  Experimental system: "CAKI-1 renal"
  Test readout: "growth"
  Unit label: "%"
  Measured: 101
- Molecule: "O=C1C[C@H](c2ccccc2)[C@H](c2ccccc2)C1"
  Experimental system: "CAKI-1 renal"
  Test readout: "growth"
  Unit label: "%"
  Measured: 89.7
- Molecule: "O=C(O)C(Cc1ccccc1)C(=O)O"
  Experimental system: "CAKI-1 renal"
  Test readout: "growth"
  Unit label: "%"
  Measured: 102
- Molecule: "O=[N+]([O-])c1ccc(O)c(S(=O)(=O)O)c1"
  Experimental system: "CAKI-1 renal"
  Test readout: "growth"
  Unit label: "%"
  Measured: 95.9
- Molecule: "S=C1CCCCCN1"
  Experimental system: "CAKI-1 renal"
  Test readout: "growth"
  Unit label: "%"
  Measured: 93.9

----------
# System: NCI-H522 lung
# Protocol summary: NCI-60 one-dose screen, 48 h (100 = growth as untreated, 0 = no growth, -100 = all killed)
# Stated conditions: 10 µM
Compounds without any hit were thinned out: in the full panel of roughly 83,000, 20% have a hit.

- Smi: "CC1(C)OC(=O)C(c2ccsc2)C(=O)O1"
  growth / %: 82.6
- Smi: "Cc1cc(OCCO)cc(C)c1Cl"
  growth / %: 114
- Smi: "COc1cc2cc(c1Cl)N(C)C(=O)C[C@H](OC(=O)[C@H](C)N(C)C(C)=O)[C@]1(C)O[C@H]1[C@H](C)[C@@H]1C[C@@](O)(NC(=O)O1)[C@H](OC)C=C/C=C(\\C)C2"
  growth / %: -60.8
- Smi: "COc1cc(/C=N\\Nc2ccccc2)ccc1OC(=O)c1ccccc1"
  growth / %: 20.6
- Smi: "COc1cc2nc3cc([N+](=O)[O-])ccc3c(Cl)c2cc1OC"
  growth / %: 70.7
- Smi: "C=C[Si](OC(C)=O)(OC(C)=O)OC(C)=O"
  growth / %: 88.7
- Smi: "[O-][N+](=Nc1cccc(Cl)c1)c1cccc(Cl)c1"
  growth / %: 148
- Smi: "COc1ccc2c(c1)CCc1c-2n[nH]c1-c1[nH]nc2c1CCc1cc(OC)ccc1-2"
  growth / %: 34
- Smi: "Cc1cc2nc(CC(=O)c3ccccc3)c(=O)[nH]c2cc1C"
  growth / %: 81.2
- Smi: "O=C(CS)Nc1ccc2ccccc2c1"
  growth / %: 118
- Smi: "O=C1C=CC(=O)N1c1ccc(I)cc1Cl"
  growth / %: -29.7
